biological target: KRas Q61H mutant (Homo sapiens, UniProt P01116, Q61H); construct: made in house; assay: Ras GTP binding domain inhibition assay (labeled-GTP competition, cell-free); conditions: at 20 μM, without SOS; read-out: KRas Q61H mutant: % inh.
Recorded inhibition at 20 µM, one value per entry.

>>> measured_result("COCCn1cnc(-c2nc(O)c3scc(-c4ccccn4)c3n2)c1")
"76 to 100%"
>>> measured_result("CO[C@H]1CC[C@@H](Nc2nc(-c3nccn3C)nc3sc(-c4cc[nH]n4)c(-c4ccccc4)c23)C1 (racemic)")
"1 to 25%"
>>> measured_result("Cc1c(-c2ccn(C(C)C)n2)sc2nc(-c3nccn3C)nc(NCc3n[nH]c(=O)n3C)c12")
"51 to 75%"
>>> measured_result("CO[C@H]1CC[C@@H](Nc2nc(C(=O)Nc3ccccn3)nc3sccc23)C1 (racemic)")
"1 to 25%"

Report inhibition at 20 µM for COc1cccc(Nc2nc(-c3nccn3C)nc3sc(-c4ccn(C(C)C)n4)c(C)c23)n1.Cl [Compound 65, hydrochloride salt] please.
26 to 50%

---

tested on: MIA-PaCa-2 pancreatic cancer cell line (KRAS G12C); assay: Cell proliferation assay (CellTiter 96 Aqueous One); type: cell-based; settings: Homo sapiens, MIA PaCa-2, MIA PaCa-2
QUANTITY: IC50

Worked cases, IC50 given:
>>> measured_result("Oc1nc(-c2nccn2CCOCC(F)(F)F)nc2c(-c3ccccn3)csc12")
"1 to 4.99 µM"
>>> measured_result("Cc1cnc(-c2nc(O)c3scc(-c4ccccn4)c3n2)s1")
"> 10 µM"
>>> measured_result("Cc1c(-c2ccn(C(C)C)n2)sc2nc(-c3nccn3C)nc(NCc3c[nH]cn3)c12")
"5 to 10 µM"
>>> measured_result("NC(=O)c1nc(O)c2scc(-c3ccccn3)c2n1")
"> 10 µM"

Report IC50 for COc1nc(-c2nccn2C)nc2c(-c3ncccc3F)csc12 please.
> 10 µM

Report IC50 for COCC1CCN(c2nc(-c3ccccn3)nc3sc(-c4ccn(C(C)C)n4)c(C)c23)C1 (racemic) please.
5 to 10 µM

Report IC50 for Cc1c(-c2ccn(C(C)C)n2)sc2nc(-c3ccccn3)nc(N3CCC(COC(C)C)C3)c12 (centres unmarked) please.
5 to 10 µM

Report IC50 for COCCn1cnc(-c2nc(O)c3scc(-c4ccccn4)c3n2)c1 please.
5 to 10 µM

Report IC50 for CO[C@H]1C[C@@H](CNc2nc(-c3nccn3C)nc3sc(-c4ccn(C(C)C)n4)c(C)c23)C1 please.
< 1 µM

---

biological target: KRas G12D mutant (Homo sapiens, UniProt P01116, G12D); construct: made in house; test: Ras GTP binding domain inhibition assay (labeled-GTP competition, cell-free); settings: without SOS, read-out: KRas G12D mutant: % inh.
Recorded inhibition at 20 µM, one value per entry.

Worked cases, inhibition at 20 µM given:
>>> measured_result("COc1cc(Nc2nc(-c3nccn3C)nc3sc(-c4ccn(C(C)C)n4)c(C)c23)ccn1 [Compound 67]")
"0%"
>>> measured_result("COc1cc(Nc2nc(-c3nccn3C)nc3sc(-c4ccn(C(C)C)n4)c(C)c23)ncn1 [Compound 66]")
"76 to 100%"
>>> measured_result("COCCn1ccnc1-c1nc(N[C@@H]2CC[C@H](OC)C2)c2c(-c3ccccc3)c(-c3ccn(C)n3)sc2n1 (racemic) [Compound 6]")
"76 to 100%"

In the following, a different molecule is considered.
Give KRas G12D mutant (Homo sapiens, UniProt P01116, G12D) inhibition at 20 µM for COCCn1ccnc1-c1nc(N[C@@H]2CC[C@H](OC)C2)c2ccsc2n1 (racemic) [Compound 8]
76 to 100%

---

Recorded inhibition at 20 µM, one value per entry.
target: Rho-A (Homo sapiens); experiment: Ras GTP binding domain inhibition assay (labeled-GTP competition, cell-free); set-up: made in house; conditions: with SOS, read-out: Rho-A + SOS: % inh.

Give Rho-A (Homo sapiens) inhibition at 20 µM for COCCn1ccnc1-c1nc(N[C@H]2C[C@@H](OC)C2)c2ccsc2n1
76 to 100%

Give Rho-A (Homo sapiens) inhibition at 20 µM for O=C(Nc1ccccn1)c1nc(O)c2scc(-c3ccccn3)c2n1
1 to 25%

Give Rho-A (Homo sapiens) inhibition at 20 µM for COCCNC(=O)c1nc(O)c2scc(-c3ccccn3)c2n1
26 to 50%

---

target: KRas G12D mutant (Homo sapiens, UniProt P01116, G12D); construct: made in house; assay: Ras GTP binding domain inhibition assay (labeled-GTP competition, cell-free); details: without SOS, read-out: KRas G12D mutant: % inh.
QUANTITY: inhibition at 20 µM

>>> measured_result("Oc1nc(-c2ccc3[nH]ncc3n2)nc2c(-c3ccccn3)csc12")
"26 to 50%"
>>> measured_result("COC1CCN(c2nc(-c3nccn3C)nc3sc(-c4ccn(C(C)C)n4)c(C)c23)C1 (racemic)")
"76 to 100%"
>>> measured_result("Oc1nc(-c2nccn2CCOCc2ccccc2)nc2c(-c3ccccn3)csc12")
"51 to 75%"
>>> measured_result("CC(C)NC(=O)c1nc(O)c2scc(-c3ccccn3)c2n1")
"26 to 50%"
>>> measured_result("CO[C@H]1CC[C@@H](Nc2nc(C(=O)Nc3ccccn3)nc3sccc23)C1 (racemic)")
"1 to 25%"

Report inhibition at 20 µM for Cc1c(-c2ccn(C(C)C)n2)sc2nc(-c3nccn3C)nc(NCCc3cn(C)cn3)c12 please.
26 to 50%

Report inhibition at 20 µM for COC1CCCN(c2nc(-c3ccccn3)nc3sc(-c4ccn(C(C)C)n4)c(C)c23)C1 (racemic) please.
26 to 50%

Report inhibition at 20 µM for COCCn1ccnc1-c1nc(N[C@H]2C[C@@H](OC)C2)c2ccsc2n1 please.
51 to 75%

---

molecular target: Rho-A (Homo sapiens); test: Ras GTP binding domain inhibition assay (labeled-GTP competition, cell-free); design: made in house; details: without SOS, read-out: Rho-A: % inh.
QUANTITY: inhibition at 20 µM

>>> measured_result("CO[C@H]1CC[C@@H](Nc2nc(C(N)=O)nc3sccc23)C1 (racemic)")
"1 to 25%"
>>> measured_result("Cn1nccc1-c1nc(O)c2scc(-c3ccccn3)c2n1")
"0%"
>>> measured_result("O=C(c1nc(O)c2scc(-c3ccccn3)c2n1)N1CCCC1")
"26 to 50%"
>>> measured_result("COCC1CCN(c2nc(-c3nccn3C)nc3sc(-c4ccn(C(C)C)n4)c(C)c23)C1 (racemic)")
"76 to 100%"
>>> measured_result("Oc1nc(-c2ccc3[nH]ncc3n2)nc2c(-c3ccccn3)csc12")
"51 to 75%"
>>> measured_result("CO[C@H]1CC[C@@H](Nc2nc(-c3nccn3C)nc3sc(-c4cn(C)cn4)c(-c4ccccc4)c23)C1 (racemic)")
"51 to 75%"
>>> measured_result("Cc1c(-c2ccn(C(C)C)n2)sc2nc(-c3nccn3C)nc(NC[C@H]3CCC(=O)N3)c12")
"76 to 100%"

In the following, a different compound is considered.
Give Rho-A (Homo sapiens) inhibition at 20 µM for COC1CCCN(c2nc(-c3nccn3C)nc3sc(-c4ccn(C(C)C)n4)c(C(F)(F)F)c23)C1 (racemic)
51 to 75%

---

target: KRas Q61H mutant (Homo sapiens, UniProt P01116, Q61H); assay: Ras GTP binding domain inhibition assay (labeled-GTP competition, cell-free); conditions: with SOS
pIC50: −log10 of the molar value.
QUANTITY: pIC50

Worked cases, pIC50 given:
>>> measured_result("NC(=O)c1nc(O)c2scc(-c3ccccn3)c2n1")
"< 5.00"
>>> measured_result("COCCn1ccnc1-c1nc(N[C@@H]2CC[C@H](OC)C2)c2ccsc2n1 (racemic)")
"5.30 to 6.00"
>>> measured_result("Oc1nc(-c2ccccn2)nc2c(-c3ncccc3F)csc12")
"5.30 to 6.00"
>>> measured_result("COCCn1ccnc1-c1nc(N[C@H]2C[C@@H](OC)C2)c2ccsc2n1")
"5.00 to 5.30"
>>> measured_result("CO[C@H]1CC[C@@H](Nc2nc(-c3nccn3C)nc3sc(-c4cc[nH]n4)c(-c4ccccc4)c23)C1 (racemic)")
"< 5.00"

Report pIC50 for CO[C@H]1CC[C@@H](Nc2nc(C(N)=O)nc3sccc23)C1 (racemic) please.
< 5.00

---

target: Rho-A (Homo sapiens); assay: Ras GTP binding domain inhibition assay (labeled-GTP competition, cell-free); set-up: made in house; conditions: with SOS, read-out: Rho-A + SOS: % inh.
Recorded inhibition at 20 µM, one value per entry.

Worked cases, inhibition at 20 µM given:
>>> measured_result("Cc1c(-c2ccn(C(C)C)n2)sc2nc(-c3nccn3C)nc(NCCc3nnn[nH]3)c12 [Compound 46]")
"76 to 100%"
>>> measured_result("CO[C@H]1CC[C@@H](Nc2nc(C(=O)Nc3ccccc3)nc3sccc23)C1 (racemic) [Compound 15]")
"0%"
>>> measured_result("COC1CCN(c2nc(-c3nccn3C)nc3sc(-c4ccn(C(C)C)n4)c(C)c23)C1 (racemic) [Compound 34]")
"76 to 100%"
>>> measured_result("COCC1CCN(c2nc(-c3nccn3C)nc3sc(-c4ccn(C(C)C)n4)c(C)c23)C1 (racemic) [Compound 38]")
"76 to 100%"
>>> measured_result("CO[C@H]1CC[C@@H](Nc2nc(-c3nccn3C)nc3sc(-c4ccn(C(C)C)n4)c(C)c23)C1 [Compound 32]")
"51 to 75%"

Report inhibition at 20 µM for COCCn1ccnc1-c1nc(N[C@@H]2CC[C@H](OC)C2)c2c(-c3ccccc3)c(-c3ccn(C)n3)sc2n1 (racemic) [Compound 6] please.
76 to 100%

Report inhibition at 20 µM for CO[C@H]1CC[C@@H](Nc2nc(C(N)=O)nc3sc(-c4ccn(C(C)C)n4)cc23)C1 (racemic) [Compound 17] please.
0%

Report inhibition at 20 µM for CO[C@H]1CN(c2nc(-c3nccn3C)nc3sc(-c4ccn(C(C)C)n4)c(C)c23)C[C@H]1OC [Compound 39] please.
76 to 100%

Report inhibition at 20 µM for Cn1ccnc1-c1nc(O)c2scc(-c3ncccc3F)c2n1 [Compound 30] please.
76 to 100%

Report inhibition at 20 µM for Cc1c(-c2ccn(C(C)C)n2)sc2nc(-c3nccn3C)nc(NC3CCOC3)c12 (racemic) [Compound 37] please.
76 to 100%

Report inhibition at 20 µM for COC1CCCN(c2nc(-c3ccccn3)nc3sc(-c4ccn(C(C)C)n4)c(C)c23)C1 (racemic) [Compound 70] please.
51 to 75%

Report inhibition at 20 µM for O=C(Nc1ccccc1)c1nc(O)c2scc(-c3ccccn3)c2n1 [Compound 23] please.
1 to 25%

Report inhibition at 20 µM for COCC1CN(c2nc(-c3nccn3C)nc3sc(-c4ccn(C(C)C)n4)c(C)c23)CCO1 (racemic) [Compound 45] please.
76 to 100%

Report inhibition at 20 µM for CO[C@H]1C[C@@H](Nc2nc(-c3nccn3C)nc3sc(-c4ccn(C(C)C)n4)c(C)c23)C1 [Compound 96] please.
0%

Report inhibition at 20 µM for CO[C@H]1CC[C@@H](Nc2nc(C(=O)NC(C)C)nc3sccc23)C1 (racemic) [Compound 13] please.
1 to 25%
